assay: AP1 Signaling Pathway (AID 357); details: ME-180 (cervical carcinoma) AP-1-bla reporter, EGF-induced, beta-lactamase ratio, 5 h; at 17.2 µM (top of the series) unless noted;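 note: ME-180 reporter cells stimulated with EGF at its EC50 level; % is set by controls: 0 for no effect and ±100 for the full control effect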
Inconclusive results are not listed.
// reported activity change, negative = inhibition per item
Quantity kind: activity change, negative = inhibition (%)

{"columns": ["Compound", "Reported value"],
 "data": [
  ["O=C1OC(Nc2ccc(Br)cc2F)c2ccccc21 (stereo not drawn)", 0.165],
  ["C=C(C)Cn1c(-c2ccc(OC)cc2)nc2ccccc21", -23.2],
  ["CNC(=O)Nc1cccc(NC(=O)NC)n1", 13]
]}

---

assay: S16 Schwann cell PMP22 intronic element firefly luciferase assay (AID 624032); conditions: S16 rat Schwann cells, PMP22 element FLuc, 24 h; series mostly up to 57.5 µM; note: nearly all actives have a fitted effect of over 30% in size
Records with an inconclusive call do not appear. Calls of active or inactive are those of the source. Calls come from the whole dose curve; as a rule, active = well fitted inhibition curve with a large enough effect; inconclusive = small, poorly fitted or top-dose-only effect; inactive = no such curve, though single readings can be large or run the other way.
Labels: yes (1) = active, no (0) = inactive

{"columns": ["Molecule", "Assigned class"],
 "data": [
  ["CC1CCC(O)C/C1=C\\C=C1/CCCC2(C)C1CCC2C(C)/C=C/C(C)C(C)C (centres undefined)", "no (0)"],
  ["OCC1O[C@H](O[C@H]2C(O)C(O)C(O)O[C@@H]2CO)C(O)C(O)C1O (some centres undefined)", "no (0)"],
  ["CCCCC(=O)O[C@]1(C(=O)CO)CCC2C3CCC4=CC(=O)CCC4(C)C3C(O)CC21C (some centres undefined)", "no (0)"],
  ["Nc1nc(/C(=C/CC(=O)O)C(=O)NC2C(=O)N3C(C(=O)O)=CCSC23)cs1 (centres undefined)", "no (0)"],
  ["CC(C)(C)NC[C@H](O)CSc1nc(-c2ccc(C(N)=O)s2)cs1", "no (0)"],
  ["Nc1nc(Cl)nc2c1ncn2[C@@H]1O[C@H](CO)[C@H](O)C1F (some centres undefined)", "yes (1)"],
  ["CNc1cc(OC)c(C(=O)N[C@@H]2CCN(Cc3ccccc3)[C@H]2C)cc1Cl", "no (0)"],
  ["CCC1OC(=O)C[C@H](O)C(C)[C@@H](O[C@@H]2OC(C)C(O)C(N(C)C)C2O)C(CCN2CC(C)CC(C)C2)CC(C)C(=O)/C=C/C(C)=C\\[C@@H]1COC1OC(C)C(O)C(OC)C1OC (some centres undefined)", "no (0)"],
  ["OC[C@@H](O)C(O[C@@H]1O[C@@H](CO)[C@H](O)[C@H](O)[C@H]1O)[C@H](O)[C@@H](O)CO (some centres undefined)", "no (0)"]
]}

---

test system: PC15; experiment: qHTS profiling for inhibitors of Plasmodium falciparum proliferation (AID 504749); note: nearly all actives have a fitted effect of over 60% in size; settings: P. falciparum in erythrocytes, SYBR Green DNA, 72 h; series mostly up to 28.7 µM
Inconclusive results are not listed. Calls of active or inactive are those of the source. Calls come from the whole dose curve; as a rule, active = well fitted inhibition curve with a large enough effect; inconclusive = small, poorly fitted or top-dose-only effect; inactive = flat fitted curve, though single readings scatter.
Labels: 1 = active, 0 = inactive

{"columns": ["Molecule", "Assigned class"],
 "data": [
  ["OCC1O[C@H](Oc2ccc(O)cc2)C(O)C(O)C1O (stereo not given in full)", 0],
  ["C[C@@H]1CCN(C(=O)[C@H](CCCNC(=N)N)NS(=O)(=O)c2cccc3c2NC[C@H](C)C3)[C@@H](C(=O)O)C1", 0],
  ["C[C@H]1[C@@H](OC(=O)CCC(=O)O)OC2OC3(C)CC[C@H]4[C@H](C)CC[C@@H]1[C@@]24OO3 (stereo not given in full)", 1],
  ["Nc1ncn(C2C[C@H](O)[C@@H](CO)O2)c(=O)n1 (stereo not given in full)", 0],
  ["C=C(CC[C@@H](C)[C@H]1CCC2[C@]1(C)CC[C@]13C[C@@]14CCC(OC(=O)/C=C/c1ccc(O)c(OC)c1)C(C)(C)[C@@H]4CC[C@@]23C)C(C)C (stereo not given in full)", 0],
  ["CCC(C(=O)C(C)C(O)C(C)CCc1ccc(C)c(O)c1C(=O)O)C1OC(CC)(C2CC[C@@](O)(CC)C(C)O2)CC1C (stereo not given in full)", 1],
  ["C/C(=C(/CCO)SS/C(CCO)=C(\\C)N(C=O)Cc1cnc(C)nc1N)N(C=O)Cc1cnc(C)nc1N", 0],
  ["Cc1cnc(C(=O)O)cn1", 0],
  ["NC(=O)NC(CCC(=O)O)C(=O)O (stereo not given)", 0],
  ["O=C(O)C(O)c1ccccc1 (stereo not given)", 0]
]}
